Assay: NCI Yeast Anticancer Drug Screen. Data for the cln2 rad14 strain (AID 165);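 note: 0% = growth equal to vehicle treated cultures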
Details: S. cerevisiae cln2 rad14 strain, at 50.0 µM, active compounds read high
The panel holds about 79,000 compounds, 15% with a hit somewhere; the sample as a whole holds those more often.
Note to self: values exactly at 60% are Met. So growth inhibition at or above 60% is Met, below is Not met.

molecule	class
CCOC(=O)C(Cc1ccc(O)cc1)NCc1ccc(N(CCCl)CCCl)cc1 (configuration not stated)	Not met
S=P(Nc1ccccc1)(Nc1ccccc1)Oc1ccccc1	Met
NP(N)(=O)Nc1ccccc1	Met
Cc1c(N)nc([C@H](CC(N)=O)NC[C@H](N)C(N)=O)nc1C(=O)N[C@H](C(=O)N[C@H](C)[C@@H](O)[C@H](C)C(=O)N[C@H](C(=O)NCCc1nc(-c2nc(C(=O)NCCC[S+](C)C)cs2)cs1)[C@@H](C)O)C(OC1OC(CO)C(O)C(O)C1OC1OC(CO)C(O)C(OC(N)=O)C1O)c1cnc[nH]1 (some centres not stated)	Met
NC(=O)c1ccc(N)nc1	Not met
O=S(=O)([O-])[O-].[Fe+2].c1ccc(/C(=N\Nc2ccccn2)c2ccccn2)cc1	Not met
O=[N+]([O-])O.[NH-]C1CCCCC1[NH-].[NH-]C1CCCCC1[NH-].[NH-]C1CCCCC1[NH-].[OH-].[OH-].[OH-].[Pt+4].[Pt+4].[Pt+4] (configuration not stated)	Not met

###

Assay: NCI Yeast Anticancer Drug Screen. Data for the bub3 strain (AID 167)
Conditions: S. cerevisiae bub3 mutant strain, at 5.0 µM (retest, dose inferred, filed as 0.5)
This is part of a sample that, as a whole, favours compounds with a hit. Of some 79,000 tested, about 15% had one in any assay. Calls of active or inactive are those of the source. No stated cut-off is given here; in the data, active means growth inhibition above about 70%; inactive means the rest.
Possible outcomes: true (1) = active, false (0) = inactive

compound	class
N#Cc1ccc(N=Cc2c([O-])ccc3ccccc23)cc1.[C-]#[O+].[C-]#[O+].[Ir]	false (0)
O=C(COc1ccc(Cl)cc1Cl)NO	false (0)
O=C(Nc1cc(Cl)ccc1Cl)C(Cl)(Cl)Cl	false (0)
CNC1=C(C)C(=O)C2=C(C1=O)C(COC(N)=O)C1(O)C3C(CN21)N3C (configuration not stated)	false (0)
C1CN([PH+](N2CC2)N2CC2)CCO1.C1CN([PH+](N2CC2)N2CC2)CCO1.[I][Pt][I]	false (0)
CNC(Cc1ccccc1)c1ccc(OC)c(OC)c1 (configuration not stated)	false (0)
COc1cccc2c1C(=O)c1c(O)c3c(c(O)c1C2=O)C[C@@](O)(/C(C)=N\O)C[C@@H]3OC1CC(N)C(O)C(C)O1 (some centres not stated)	false (0)
BrCc1ccc2ncccc2c1	false (0)
CC(C)C1(NC(=O)C2C=C3c4cccc5[nH]cc(c45)CC3N(C)C2)OC2(O)C3CCCN3C(=O)C(Cc3ccccc3)N2C1=O (configuration not stated)	false (0)
O=C(CCl)Nc1cccc(Cl)c1	false (0)
CCC[CH2][Sn]1([CH2]CCC)[O]C(c2ccccn2)S(=O)(=O)[O]1 (configuration not stated)	false (0)
CC(C)O.CC(C)O.OCCN(CCO)CCO.OCCN(CCO)CCO.[Ti+2]	true (1)
c1ccc(P(CC[As](c2ccccc2)c2ccccc2)CC[As](c2ccccc2)c2ccccc2)cc1	true (1)
CCN(CC)C1CC(O[C@H]2C[C@](O)(C(=O)CO)Cc3c(O)c4c(c(O)c32)C(=O)c2c(OC)cccc2C4=O)OC(C)C1O (some centres not stated)	true (1)
C1CC[N-]CC1.CC(=N\O)/C(C)=N/O.CC(=N\O)/C(C)=N/O.OC1[CH-]CCCC1.[Co+2]	false (0)
CC1CCS(=O)(=O)CC1.[Cl][Hg][Cl]	true (1)
CC(=O)O[C@H]1C[C@@H]2OC3C=C(C)CCC3(C)[C@@]1(C)[C@@]21CO1 (some centres not stated)	true (1)
CC1=[N+](Cc2cc(C)cc(C)c2O)CCCC1	false (0)
Oc1ccc2ccccc2c1O	false (0)
CCC[CH2][Sn]([CH2]CCC)([CH2]CCC)[O]C(=O)C[N+](C)(C)c1cc[c]([Hg][c]2ccc(N(C)C)cc2)cc1	true (1)
CCCCN(CCCC)CC(C(C)=O)C(c1ccccc1)c1c(O)c2ccccc2oc1=O (configuration not stated)	false (0)
N#CN(Cc1ccccc1)C(c1ccccc1)(c1ccccc1)c1ccccc1.[Cl][Sn]([c]1ccccc1)([c]1ccccc1)[c]1ccccc1	true (1)

###

Listed here: items and their measured growth inhibition.
Assay: NCI Yeast Anticancer Drug Screen. Data for the rad52 strain (AID 147);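 note: 0% = growth of vehicle-treated control cultures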
Conditions: S. cerevisiae rad52 mutant growth inhibition; at 1.2 µM; active compounds read high
About 79,000 compounds went through this panel and 15% of them were active in at least one assay; those are over-represented in the sample as a whole.

molecule	unit	growth inhibition
CC1(Cl)CC(C)(/C=C/Cl)C(Cl)CC1Cl (centres undefined)	%	6
O=[N+]([O-])c1ccc(N2CCC(CCCC3CCN(c4ccc([N+](=O)[O-])cc4[N+](=O)[O-])CC3)CC2)c([N+](=O)[O-])c1	%	-24
Nc1nnc(N)n1-n1c(N)nnc1N	%	-2
[O-][n+]1c2cccc(O)c2[n+]([O-])c2cccc(O)c21	%	23
O=C1NC(=S)NC(=O)C1=Cc1ccc([N+](=O)[O-])o1	%	-50
CCOC(=O)C1([Se]c2ccccc2)CCCC1=O (centres undefined)	%	11
OCC(O)C(O)CO (centres undefined) (tested in a mixture with another compound)	%	-2
CC1(C)N=C(N)N=C(N)N1c1cccc(N)c1.[Sn]	%	18
O=C1c2ccc3ccccc3c2CCC1N1CCCCC1 (centres undefined)	%	4

###

Listed here are molecules together with their documented growth inhibition.
Assay: NCI Yeast Anticancer Drug Screen. Data for the rad14 strain (AID 159);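 note: 0% = growth of vehicle-treated control cultures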
Details: S. cerevisiae rad14 strain growth inhibition; at 3.7 µM; active compounds read high
Compounds without any hit were thinned out: in the full panel of roughly 79,000, 15% have a hit.

molecule	growth inhibition / %
COc1cccc2c1C(=O)c1c(O)c3c(c(O)c1C2=O)C[C@@](O)(C(C)=O)C[C@@H]3OC1CC(N)C(OC2CC(O)C(O)C(C)O2)C(C)O1 (some centres not stated)	-11
CCCCCCCCCCCCCCCCP(=O)(O)OP(=O)(O)OCC1OC(n2ccc(N)nc2=O)C(O)C1O (configuration not stated)	-1
CC[C@@]1(O)C[C@H](OC2CC(N(C)C)C(O)C(C)O2)c2c(O)c3c(c(O)c2[C@H]1OC1CC(N(C)C)C(O)C(C)O1)C(=O)c1cccc(O)c1C3=O (some centres not stated)	15
Nc1nnc(N)n1-n1c(N)nnc1N	-3
CCS(=O)(=O)[O][Sn]([CH2]C)([CH2]C)[O]S(=O)(=O)CC	4
NNc1ccccc1Cl	29
O=C(/C=C(\c1ccccc1)N1CC1)c1ccccc1	-1
Cc1cccc(NC(=O)CBr)c1	57
Cc1cc[n+](C2=C(Nc3cccc(C(F)(F)F)c3)C(=O)c3ccccc3C2=O)cc1	-8
O=C(COc1ccc(Cl)cc1Cl)NO	3
O=[N+]([O-])c1ccc(C=Cc2ccccc2)cc1.[C-]#[O+].[C-]#[O+].[C-]#[O+].[Cr]	12
O=C1C=CC(=O)C1(Br)Br	13

###

Experiment: NCI Yeast Anticancer Drug Screen. Data for the mlh1 rad18 strain (AID 175)
Settings: S. cerevisiae mlh1 rad18 strain growth inhibition; at 50.0 µM (retest, dose inferred, filed as 5.0); active compounds read high
The panel holds about 79,000 compounds, 15% with a hit somewhere; the sample as a whole holds those more often.
The compounds listed here are annotated with their growth inhibition.

structure-as-smiles	growth inhibition (%)
CN(C)CCSC1=Nc2ccc(Cl)cc2C(c2ccccc2Cl)=NC1	28
CN1CSC(=S)N(C)C1	96
N.N.N.N.N.N#N.[Cl-].[Os+7]	89
Clc1c(CI)ccc(CI)c1Cl	96
CCS(=O)(=O)[O][Sn]([CH2]C)([CH2]C)[O]S(=O)(=O)CC	87

###

Assay: NCI Yeast Anticancer Drug Screen. Data for the rad50 strain (AID 155);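 note: 0% = growth of vehicle-only cultures of the same strain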
Settings: S. cerevisiae rad50 strain growth inhibition; at 5.0 µM (retest, dose inferred, filed as 0.5)
About 79,000 compounds went through this panel and 15% of them were active in at least one assay; those are over-represented in the sample as a whole. Calls of active or inactive are those of the source. No stated cut-off is given here; in the data, active means growth inhibition above about 70%; inactive means the rest.
Classes used: label 1 for active, label 0 for inactive

compound	class
Cc1cc[n+](C2=C(Nc3cccc(C(F)(F)F)c3)C(=O)c3ccccc3C2=O)cc1	label 0
O=C(O)CCCc1cc(I)c(N(CCCl)CCCl)c(I)c1	label 0
CNC(=O)Oc1ccccc1/C=N\Sc1ccc(Cl)cc1	label 0
Nc1nc(N)c(-c2ccc(Cl)c(Cl)c2)c(CCc2ccc(CNC(=O)Nc3ccc(S(=O)(=O)F)cc3)cc2)n1	label 0
O=C(CCCC(=O)NNC(=O)Nc1cccc(S(=O)(=O)F)c1)NNC(=O)Nc1cccc(S(=O)(=O)F)c1	label 0
NC(N)=N/N=C1\C(=O)N(c2ccc(Cl)cc2)C(=O)C1C(=O)Nc1ccc(Cl)cc1 (configuration not stated)	label 0
CCC[CH2][Sn]([Cl])([CH2]C)[O][Sn]([Cl])([CH2]C)[CH2]CCC (configuration not stated)	label 1
N#CC(C#N)=Cc1cc(Cl)ccc1O	label 0
O=C1c2ccccc2[Se](=O)N1c1ccccc1 (configuration not stated)	label 0
C(=C/P(c1ccccc1)c1ccccc1)/P(c1ccccc1)c1ccccc1.C(=CP(c1ccccc1)c1ccccc1)P(c1ccccc1)c1ccccc1.[Pt]	label 0
CC(=O)C1CCC2C3CCC4=CC(=[N+]5CCCCC5)CCC4(C)C3CCC12C (configuration not stated)	label 1
c1cc[c]([Sn]([c]2ccccc2)([c]2ccccc2)[CH]2CCCCC2)cc1	label 0
CCC[CH2][Sn]1([CH2]CCC)[O]C(c2ccccn2)S(=O)(=O)[O]1 (configuration not stated)	label 0
C[n+]1[se]nc2cc(C(=O)c3ccccc3)ccc21 (tested in a mixture with another compound)	label 1
Oc1c(-c2ccccc2)cc(-[n+]2c(-c3ccccc3)cc(-c3ccccc3)cc2-c2ccccc2)cc1-c1ccccc1	label 1
C=Cc1cc(OC)c2c(c1)c(=O)oc1c2cc(OC)c2c(O)ccc(C3OC(C)C(O)C(C)(O)C3O)c21 (configuration not stated)	label 1
O=C(CCl)Nc1cccc(Cl)c1	label 0
